Please provide measured inhibition for the entries that follow.
# assay: blockers of RIG-like receptor reporter activation – cell-based, Sendai virus stimulus, luciferase, 10K MLSCN set, TLR/RLR signaling modifier project, primary screen (AID 602276);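 further: firefly luciferase from ISG56 promoter only with Renilla not read in this screen; 0% = Sendai virus plus DMSO and 100% = medium plus DMSO without virus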
# assay-conditions: HEK293 RL24 IRF3 luciferase reporter, at 10 µM, stronger effect = higher value
Express it in %; write the number only.

Lab book: inhibition of COc1c2ccoc2nc2c(OC)c(OCC(O)C(C)(C)O)ccc12 (stereo not given) noted as 15.7

Input `CC1(C)CC(=O)c2cc(OCC(=O)NCCCN3CCN(c4ccccc4F)CC3)ccc2O1` . Output inhibition: 9.74

The compound identified as `CCCn1cc(SCC(=O)NCc2ccco2)c2ccccc21` registered its inhibition at 13

Looking up N#CCSc1nc2c(c(C3CC=CCC3)c1C#N)CCC2 (stereo not given) , I found its inhibition recorded as -0.626

inhibition in this record for CCC(Oc1ccc2ccccc2c1)C(=O)O (stereo not given) : -9.77

----------
# assay: endothelial E-selectin expression blockers – imaging, HUVEC, immunofluorescence, MLSMR starter and 10KST1 sets, primary screen (AID 487)
# assay-conditions: HUVEC TNFalpha-induced E-selectin immunofluorescence imaging, at 2 µM
The source made the active and inactive calls.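 Rule for the calls: active = visually confirmed hit in the image check and inhibition above 20%; inconclusive = visually confirmed hit but inhibition not above 20%; inactive = no visual hit in the image check.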
Your answer must be one of the following: 1 for active, -1 for inactive

Lookup: Record request — test call for `Cc1ccc(S(=O)(=O)N[C@@H](C)C(=O)N2CCC(C(=O)N3CCC[C@H]3C(=O)O)CC2)cc1`
Found: -1

Lookup: Hey, what did the test say about O=C(COC(=O)Cc1cccc(C(F)(F)F)c1)NCC1CCCO1 (configuration not stated) ?
Found: -1

Lookup: Name the outcome recorded for `O=C(O)CSc1ccc2ccccc2n1` in the assay.
Found: -1

Lookup: Test call for this molecule, please: O=C(O)C1CSC2c3ccccc3C(=O)N12 (configuration not stated)
Found: -1

Lookup: Recorded call for `Cc1ccc(Cn2c(C)nc3c(c2=O)c2nc4ccccc4nc2n3Cc2ccco2)cc1` ?
Found: -1

Lookup: Assay outcome for CCOc1ccccc1NC(=O)N1CCCC1C(=O)Nc1nnc(CC)s1 (configuration not stated) : what was it?
Found: -1

Lookup: Tell me the assay call for `COC(=O)c1ccccc1S(=O)(=O)N(Cc1cc2cc3c(cc2[nH]c1=O)OCO3)C1CCCCC1` please.
Found: -1

Lookup: Call for entry `Nc1nc(SCCOc2ccccc2)n[nH]1` :
Found: -1

Lookup: What outcome does the record of this test show for `CN1C(=O)CSc2ccc(NC(=O)N3CCN(c4ccccn4)CC3)cc21` ?
Found: -1

Lookup: Which outcome was entered for the molecule O=C1CSC(c2cccc(F)c2)N1c1ccccc1F (configuration not stated) in this test?
Found: -1

Lookup: I'd appreciate the recorded outcome for `CCCn1c(N2CCN(CC(=O)NCc3cccs3)CC2)nc2ccccc21` from this test.
Found: -1

Lookup: Just curious, what result did `O=C(c1ccco1)N1CCN(C(=O)C2CCN(S(=O)(=O)c3cccc4nsnc34)CC2)CC1` get here?
Found: -1

Lookup: Tell me the recorded outcome of this test for `CCCn1c(N2CCN(CC(=O)Nc3ccc4c(c3)OCCO4)CC2)nc2ccccc21` .
Found: -1

Lookup: Hello, I am checking results. What call was entered for `CN(C)c1nc(N)nc(CSc2nnnn2-c2cccc3ccccc23)n1` ?
Found: -1

Lookup: What call does the record list for `CCOc1cc(C(=O)N2CCN(c3ccccc3)CC2)cc(OCC)c1OCC` ?
Found: -1

Lookup: State the result this test recorded for CCCCC(c1nnnn1CS(=O)(=O)c1ccc(C)cc1)N1CCN(c2ccccc2)CC1 (configuration not stated) .
Found: -1

Lookup: // outcome(item) with item = `CN(C)S(=O)(=O)c1ccc(C(=O)N2CCC(c3nc4ccccc4o3)CC2)cc1`
Found: -1

Lookup: Outcome logged for CN(C(=O)COC(=O)C1CCN(S(=O)(=O)c2cccs2)CC1)C1CCS(=O)(=O)C1 (configuration not stated) in this assay:
Found: -1

Lookup: Recorded test outcome, item `CCn1c(=O)cc(SCC(=O)N2CCOCC2)c2ccccc21`
Found: -1

Lookup: Entry `O=C(O)c1cc(/C=N\O)ccc1OCc1ccccc1` : call = ?
Found: -1

Lookup: Record lookup: outcome of this test for `O=C(Nc1cccc(C(=O)N2CCOCC2)c1)c1cccnc1` ?
Found: -1

Lookup: Dear all, I need the recorded test outcome for `CCc1c(C)nc(N2CCN(Cc3ccccc3)CC2)[nH]c1=O` , thank you.
Found: -1

Lookup: Outcome? `COc1ccc(CCNC(=O)c2cc(-c3cc(C)c(C)cc3O)n[nH]2)cc1OC`
Found: -1

Lookup: Per the records of this test, what outcome belongs to COc1ccc(/C(O)=C2/C(=O)C(=O)N(CC3CCCO3)C2c2cccc(OC)c2)cc1 (configuration not stated) ?
Found: -1

Lookup: Assay outcome for COCCOC(=O)C1=C(C)N=c2s/c(=C\c3cccs3)c(=O)n2C1c1cccs1 (configuration not stated) : what was it?
Found: -1

Lookup: Hi, sorry to bother you, what did the test record for `Cc1ccc(-c2cc(C(F)(F)F)n3ncc(C(=O)O)c3n2)cc1` ?
Found: -1

Lookup: What is the recorded call for this molecule in the test? `O=C(c1ccccc1)c1coc2ccc(O)c(CN3CCOCC3)c12`
Found: -1

Lookup: Fill in: this test's call for Cc1ccc(-c2noc(C3CCCN(C(=O)c4ccc(F)cc4F)C3)n2)cc1 (configuration not stated) is ___
Found: -1

Lookup: Fill in: this test's call for `Cc1ccc(C)c(-n2c(Cc3cc(=O)[nH]c(=O)[nH]3)nnc2SCC(=O)NCc2ccco2)c1` is ___
Found: 1

Lookup: Please share the test call associated with `CCOC(=O)CNS(=O)(=O)c1c(C)noc1C` .
Found: -1

Lookup: What was the test verdict on `COc1ccc(-n2ncc3c(NCc4ccccn4)ncnc32)cc1` ?
Found: -1

Lookup: In this assay, the call recorded for O=C(O)c1cnn2c1NC(c1ccc(F)cc1)CC2C(F)(F)F (configuration not stated) was what?
Found: -1

Lookup: In this assay, the call recorded for `C[C@H]1C[C@H]2[C@@H]3CCC4=CC(=O)C=C[C@]4(C)[C@@]3(Cl)[C@@H](O)C[C@]2(C)[C@@]1(O)C(=O)CO` was what?
Found: -1

Lookup: Test call for this molecule, please: `c1ccc2c(c1)nc(CN1CCOCC1)n1c3ccccc3nc21`
Found: -1

Lookup: Status in this test for `Cc1ccc(NC(=O)c2oc3ccc(S(=O)(=O)N4CCOCC4)cc3c2C)cc1C` ?
Found: -1

Lookup: Returns: the outcome recorded for `CCc1nnc(NC(=O)c2ccc(-c3cccc(C(F)(F)F)c3)o2)s1` in this assay.
Found: -1

Lookup: Given `CC(=O)c1cccc(NC(=O)c2ccc(NS(C)(=O)=O)cc2)c1` , state the outcome it received in this test.
Found: -1

----------
# assay: endothelial E-selectin expression blockers – imaging, HUVEC, immunofluorescence, MLSMR starter and 10KST1 sets, primary screen (AID 487);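 on nuclei count: 100% = median nuclei count of all wells on the same plate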
# assay-conditions: HUVEC TNFalpha-induced E-selectin immunofluorescence imaging, at 2 µM; measured here: cell number, toxicity
For each record, write down the corresponding nuclei count.
# unit: % | format: bare number

Query `C[C@]12C=CC(=O)C=C1CC[C@H]1[C@@H]3C[C@@H](O)[C@](O)(C(=O)CO)[C@@]3(C)C[C@H](O)[C@@]12F` yields nuclei count of 117

Recorded nuclei count (compound `CN(CC(=O)Nc1ccncc1)S(=O)(=O)c1ccccc1` ): 148

Sample Cc1cc(NS(=O)(=O)c2ccc(NC(=O)C(C)N3C(=O)c4ccccc4C3=O)cc2)nc(C)n1 (configuration not stated) ; nuclei count observed: 90.8

Record `CS(=O)(=O)Nc1ccc(C(=O)NCc2ccc3c(c2)OCO3)cc1` . Reported nuclei count: 108

Field nuclei count (entry `COc1ccccc1-c1noc(-c2cccnc2)n1` ) reads 125

nuclei count reported for this compound `COCCN(Cc1ccccc1)P(=O)(O)c1ccccc1OCC(=O)O` : 151

Noted for COc1ccc(C2C3=C(CC(C)(C)CC3=O)Oc3ncn4nc(-c5cccnc5)nc4c32)cc1 (configuration not stated) : its nuclei count reads 144

----------
# assay: blockers of RIG-like receptor reporter activation – cell-based, Sendai virus stimulus, luciferase, 10K MLSCN set, TLR/RLR signaling modifier project, primary screen (AID 602276);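 further: firefly luciferase from ISG56 promoter only with Renilla not read in this screen; 0% = Sendai virus plus DMSO and 100% = medium plus DMSO without virus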
# assay-conditions: HEK293 RL24 IRF3 luciferase reporter, at 10 µM, stronger effect = higher value
measured-parameter: inhibition (%)
Please respond with the number in % and leave the unit unwritten.

// sample O=C(NCc1ccco1)C1CC(=O)N(c2ccc(F)cc2)C1 (stereo not drawn) , its inhibition was 3.07

The recorded inhibition for O=C(NCCCN1CCOCC1)C1CC(=O)N(CCc2ccccc2)C1 (stereo not drawn) is 15.2

Recorded result, `O=C(NCc1ccco1)C1CCN(C(=O)c2cc3sccc3n2Cc2ccc(F)cc2)CC1` , inhibition: 17.8

Short answer for `CC(=O)OC[C@H]1O[C@@H](n2ncc(=O)[nH]c2=O)[C@H](OC(C)=O)[C@@H]1OC(C)=O` : inhibition was 13.3

Short answer for `Cc1ccc(C)c(C(=O)NC2CC(C)(C)NC(C)(C)C2)c1` : inhibition was -2.48

Measured inhibition of `C=C(CC)C(=O)c1ccc(OCC(=O)O)c(Cl)c1Cl` : 17.1

O=C(NCC1CCCO1)C1CC(c2ccc(Cl)c(Cl)c2)=NO1 (stereo not drawn) has a reported inhibition of 3.78

So for CCn1cc(C2=NOC(C(=O)Nc3cc(C)nn3-c3ccccc3)C2)c(C)n1 (stereo not drawn) , the logged inhibition turned out to be -1.87

Short answer for `COC(=O)c1cn(-c2ccccc2)nc1C(=O)OC` : inhibition was 4.01

Entry `CC1CCN(C(=O)c2ccc(C(=O)N3CCC(C)CC3)cc2)CC1` ; inhibition = 12.9

Reported inhibition of `CNC(=O)CN(c1cc(C)ccc1OC)S(=O)(=O)c1ccc(C)cc1` : 5.72

Per the records, this compound ( `Cc1sc2ncnc(OCC(=O)N3CCN(S(=O)(=O)c4ccc(Cl)cc4)CC3)c2c1C` ) has inhibition equal to -76.1

# inhibition of O=S(=O)(c1ccc(OCC(O)CN2CCc3ccccc3C2)cc1)N1CCOCC1 (stereo not drawn) = 15.9

Entry `Oc1cccc2ccc(Nc3ccccn3)nc12` ; inhibition = 11

Form field inhibition, entry Cc1ccc(NC2c3ncccc3C(=O)N2C2CCCCC2)cc1C (stereo not drawn) : 1.86

Documented inhibition of `COCCn1c(NCc2ccc(C)cc2)nc2c1c(=O)[nH]c(=O)n2C` : 7.9

Lab note: measured inhibition of COc1ccc(CCN(C)CCCC(C#N)(c2ccc(OC)c(OC)c2)C(C)C)cc1OC (stereo not drawn) was 2.16

Entry `CC(=O)c1nnn(-c2nc(N3CCCC3)nc(N(c3ccccc3)c3ccccc3)n2)c1C` , inhibition reported as 15.9

Reported inhibition of `Oc1c(Cl)cc(Cl)cc1Sc1cc(Cl)cc(Cl)c1O` : 10.6

Data point: `COc1ccc(C(=O)NCCn2ccc3ccccc32)cc1` ; inhibition = 5.56

Consider `O=C(c1ccc2c(c1)OCO2)N1CCNc2ccccc2C1` . Its measured inhibition is 8.51

Consider `O=C1c2ccccc2-c2nc3ncnn3c(-c3ccccc3)c21` . Its measured inhibition is -11.4

Sure, the documented inhibition for `O=S(=O)(NCCc1csc(-c2ccccc2)n1)c1ccc2c(c1)OCCO2` is 14.6

`Cc1ccc(S(=O)(=O)N(C)Cc2cc3ccccc3[nH]c2=O)cc1` has a reported inhibition of 8.78

For this compound ( `O=C(O)CCN1C(=O)c2ccccc2C1=O` ), measured inhibition is 14.6

// inhibition lookup, compound = Cc1nc(C)c(C(=O)C2=C(O)C(=O)N(CCN3CCOCC3)C2c2cccnc2)s1 (stereo not drawn) , result: 17.2

For record `Cn1c(=O)[nH]c2cc3ccccc3cc21` the listed inhibition is 4.54

Data point: CCCS(=O)(=O)N1CCCC(C(=O)N2CCC(Cc3ccccc3)CC2)C1 (stereo not drawn) ; inhibition = 11.3

Value of inhibition reported for the compound `COc1ccccc1-c1ccc(Nc2cccc(C(C)=O)c2)nn1` is 12.1

CC1CCc2cc(F)cc3c(=O)c(C(=O)O)cn1c23 (stereo not drawn) has a reported inhibition of 9.82

Given item `COc1ccc(Cc2nnc3n2N=C(c2cc4ccccc4o2)CS3)cc1OC` , the value recorded as its inhibition is 11.3

# inhibition of CCOC(=O)N1CCC(N(C(=O)Nc2ccc(Cl)c(Cl)c2)C(C)CC)CC1 (stereo not drawn) = 8.19

Sure, the documented inhibition for `C=CCN(CC=C)C(=O)CN1C(=O)c2ccccc2C1=O` is 19.9

Kindly note the recorded inhibition for `OCC#CCSc1nnc(-c2ccccc2Br)o1` , which is -9.39

Form field inhibition, entry `Cc1cc(C2C(C#N)=C(N)SC(N)=C2C#N)c(C)s1` : 8.05

The value of inhibition measured for the compound `Cc1cccc(-n2nnc(C(=O)NCc3ccccc3)c2N)c1` turned out to be 9.81

So, `CN1CCN(C(=O)CN(Cc2ccc(Cl)cc2)S(C)(=O)=O)CC1` ? Its inhibition was 18

Form field inhibition, entry COc1cc(C2Oc3cc(C4Oc5cc(O)cc(O)c5C(=O)C4O)ccc3OC2CO)ccc1O (stereo not drawn) : -16.8
